# AC50 per entry
# ASSAY_TARGET: Coelenterazine h 2-monooxygenase (Renilla reniformis)
# MEASUREMENT_PARAMETERS: read-out: AC50
# Description: GSK_PKIS: Inhibition of Sea Pansy Luciferase (Data from PubChem: AID 652015) [NIH NCATS]
Mention the unit after the number when you answer.

// solved cases for AC50 follow
>>> reported_result("CCn1c(-c2nonc2N)nc2c(C#CCN)ncc(OCCCN)c21.O=C(O)C(F)(F)F [GSK-561866B]")
"23.1 µM"
>>> reported_result("NCc1ccc(-n2c(-c3nonc3N)nc3cnccc32)cc1")
"41.1 µM"
>>> reported_result("C[C@@H](Oc1cc(-n2cnc3ccc(OC4CCN(C)CC4)cc32)sc1C(N)=O)c1ccccc1Cl [GSK-579289A]")
"20.6 µM"
>>> reported_result("COc1cc2ncn(-c3cc(OCc4ccccc4C(F)(F)F)c(C(=O)N(C)C)s3)c2cc1OC [GSK-1030062A]")
"23.1 µM"
>>> reported_result("NS(=O)(=O)c1ccc(N/N=C2\\C(=O)Nc3ccc(C(=O)NCCc4c[nH]cn4)cc32)cc1 [GW300660X]")
"16.3 µM"

Look up AC50 for this molecule: COc1ccc2cc(-c3c(-c4ccncc4)nc(-c4ccc([S+](C)[O-])cc4C)n3C)ccc2c1 (configuration not stated)
41.1 µM

---

# ASSAY_TARGET: Coelenterazine h 2-monooxygenase (Renilla reniformis)
# Sequence (P27652 whole entry): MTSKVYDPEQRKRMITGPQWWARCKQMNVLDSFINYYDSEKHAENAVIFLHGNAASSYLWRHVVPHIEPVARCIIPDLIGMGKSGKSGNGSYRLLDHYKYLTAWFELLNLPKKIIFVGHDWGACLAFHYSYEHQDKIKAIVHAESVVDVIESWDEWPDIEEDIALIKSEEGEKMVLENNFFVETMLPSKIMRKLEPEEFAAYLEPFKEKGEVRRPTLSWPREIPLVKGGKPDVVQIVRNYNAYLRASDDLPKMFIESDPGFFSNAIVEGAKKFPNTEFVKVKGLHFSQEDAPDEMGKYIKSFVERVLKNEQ
# MEASUREMENT_PARAMETERS: read-out: AC50
Reported AC50 values for a set of molecules
State the answer as a number, implicitly in µM.

Below, each entry is followed by its recorded AC50 result.
>>> reported_result("NS(=O)(=O)c1ccc(N/C=C2\\C(=O)Nc3ccc4ncsc4c32)cc1 [GW297361X]")
32.6
>>> reported_result("COc1cc2ncn(-c3cc(OCc4cccs4)c(C(N)=O)s3)c2cc1OC [GSK-312948A]")
9.19
>>> reported_result("CN(C)c1ccc2c(c1)/C(=C/Nc1ccc(S(N)(=O)=O)cc1)C(=O)N2 [GW416469X]")
5.8

Would you kindly look at the next entry?
State the recorded AC50 for this entry: Nc1ncnc2occ(-c3ccc(NC(=O)Nc4cc(C(F)(F)F)cc(C(F)(F)F)c4)cc3)c12 [GW795486X]
16.3

---

# ASSAY_TARGET: Luciferin 4-monooxygenase (Photinus pyralis)
# Sequence (P08659 whole entry): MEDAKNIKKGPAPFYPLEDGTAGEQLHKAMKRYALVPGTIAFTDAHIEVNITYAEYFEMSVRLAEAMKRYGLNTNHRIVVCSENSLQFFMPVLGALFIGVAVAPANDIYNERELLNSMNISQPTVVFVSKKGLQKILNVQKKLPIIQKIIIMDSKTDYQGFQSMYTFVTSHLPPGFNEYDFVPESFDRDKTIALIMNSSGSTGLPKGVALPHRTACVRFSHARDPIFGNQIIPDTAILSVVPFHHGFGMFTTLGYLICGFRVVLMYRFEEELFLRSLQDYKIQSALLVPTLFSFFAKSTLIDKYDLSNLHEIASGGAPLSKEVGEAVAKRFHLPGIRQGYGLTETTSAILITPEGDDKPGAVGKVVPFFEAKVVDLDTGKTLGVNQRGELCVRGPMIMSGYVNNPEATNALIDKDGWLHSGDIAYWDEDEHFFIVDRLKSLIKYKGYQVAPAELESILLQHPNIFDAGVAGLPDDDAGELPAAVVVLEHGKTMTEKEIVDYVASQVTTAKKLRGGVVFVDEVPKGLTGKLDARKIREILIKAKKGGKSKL
# MEASUREMENT_PARAMETERS: read-out: AC50
# Description: GSK_PKIS: Inhibition of Firefly Luciferase (Data from PubChem: AID 652016) [NIH NCATS]
Labels assigned by AC50 range: low value: < 10 µM; medium value: ≥ 10 µM and < 30 µM; high value: ≥ 30 µM

Record excerpt, results attached:
>>> group_label("CCn1c(-c2nonc2N)nc2cnc(Oc3cccc(NC(=O)c4ccc(N(C)C)cc4)c3)cc21 [GSK-248233A]")
"low value"
>>> group_label("O=C(NCC1CC1)c1ccc(-c2cccc(C(=O)NC3CC3)c2)cc1 [GW806776X]")
"low value"
>>> group_label("NC(=O)c1cc(-c2ccncc2)cc(-c2ccccc2)c1N [GSK-625137A]")
"high value"
>>> group_label("COc1cc(/C=N/Nc2ncnc3c2cnn3C(C)C)ccc1O [GW644007X]")
"low value"

Hey, which category is Cl.O=C(O[C@H]1CN[C@H](C#Cc2cc3ncnc(Nc4ccc5c(cnn5Cc5ccccc5)c4)c3s2)C1)N1CCOCC1 [GSK-200398A] in, do you know?
medium value

Band for COc1ccc(-c2cc3c(N)ncnc3o2)cc1 [GW642138X] ?
low value

Which category does the recorded AC50 put Cl.N#Cc1cccc(Nc2ncc(-c3ccccc3)o2)c1 [GW627834A] in?
low value

// bin(item) where item = Nc1nccc(C#Cc2cncnc2Nc2ccc(OCc3cccc(F)c3)c(Cl)c2)n1 [GW799251X]
medium value

Textbook exercise: identify the category of the compound given here, Cc1ccc(Nc2ccnc(Nc3cccc(C(N)=O)c3)n2)cc1O.Cl [GW575808A] , according to its measured value.
low value

Which of the defined bands does the recorded AC50 of COc1ccc(Nc2ncc(-c3ccccc3)o2)cc1OC.Cl [GW575533A] sit within?
low value

Kindly identify the class of O=C(Nc1n[nH]c2nc(-c3ccco3)c(Br)cc12)C1CC1 .
medium value

Could you place COC(=O)Nc1nc2ccc(Oc3ccc(NC(=O)Nc4cc(C(F)(F)F)ccc4F)cc3)cc2s1.Cl [GW693917A] in its proper category? Many thanks.
medium value

Where would CN1CCN(C(=O)c2ccc(NC(=O)Nc3ccc(N(C)c4ccnc(Nc5ccc(CS(C)(=O)=O)cc5)n4)cc3)cc2)CC1.Cl [GW830263A] land among the classes by reported AC50?
low value

Which of the defined bands does the recorded AC50 of CN(C)CCCNc1nccc(-c2c(-c3ccc(F)cc3)nn3cc(C(F)(F)F)ccc23)n1.CS(=O)(=O)O [GW618013A] sit within?
high value

GET /class?item= COc1ccccc1-c1cc(/C=C2\C(=O)Nc3ncc(Br)cc32)cc(Br)c1O [GW442130X]
high value

Consider c1ccc(Nc2ncc(-c3ccccc3)o2)cc1 [GW549390X] . To which AC50 class does it belong?
low value

Please indicate the class for CC(C)c1ccc(Nc2nccc(-c3cnn4ncccc34)n2)cc1 [GW805758X] based on its AC50.
medium value

In plain terms, what class is Fc1ccc(-c2nn3ccccc3c2-c2ccncc2)cc1 [GW434756X] ?
low value

Into which category would you place Nc1nc(-c2ccccn2)c(-c2ccc3ncccc3n2)s1 [GW693481X] ?
high value

GET /class?item= Cc1cccc(Nc2ncc(-c3ccccc3)o2)c1 [GW632046X]
low value

For CCC(=O)Nc1ccc(C)c(-c2ccc(C(=O)NCC3CC3)cc2)c1 [GW796921X] , which AC50 bin applies?
medium value

Entry Fc1ccc(-c2ncn(C3CCNCC3)c2-c2ccnc(Oc3ccc4c(c3)OCO4)n2)cc1 belongs to which category?
high value

Which bin should I file CCc1cccc(NC(=O)Nc2ccc(Oc3ccc4nc(NC(=O)OC)[nH]c4c3)cc2)c1 [GW673715X] under?
high value

Class label required: CCc1cccc(CC)c1/C=C/c1cncc(C(=O)NC)c1 [GW450241X]
high value

Please classify: CN(C)C(=O)O[C@@H]1CN[C@@H](C#Cc2cc3ncnc(Nc4ccc(OCc5cccc(F)c5)c(Cl)c4)c3s2)C1 [GSK-238063A]
high value

Class label required: O=C1Nc2ccc(C(=O)c3ccco3)cc2C1=Cc1cc(Cl)c(O)c(Cl)c1 [GW406108X]
medium value

---

# ASSAY_TARGET: UniProtKB P27652
# Sequence (P27652 whole entry): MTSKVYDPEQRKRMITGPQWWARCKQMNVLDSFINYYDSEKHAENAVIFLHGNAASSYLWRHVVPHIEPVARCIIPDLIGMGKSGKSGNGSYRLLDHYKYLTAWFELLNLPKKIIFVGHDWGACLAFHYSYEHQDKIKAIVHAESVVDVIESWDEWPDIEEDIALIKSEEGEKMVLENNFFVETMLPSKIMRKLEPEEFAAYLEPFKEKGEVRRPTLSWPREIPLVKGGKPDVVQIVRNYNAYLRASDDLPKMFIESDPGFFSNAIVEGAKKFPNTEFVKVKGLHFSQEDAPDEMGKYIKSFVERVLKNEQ
# MEASUREMENT_PARAMETERS: read-out: AC50
OBSERVABLE: log10 of AC50 (log10 of the value in µM)
All values: base-10 log of AC50 in µM.

>>> reported_result("COc1cc2c(cc1Nc1nc(Nc3ccsc3C(N)=O)c3cc[nH]c3n1)N(C(=O)CN(C)C)CCC2 [GSK-2110236A]")
1.66
>>> reported_result("CCCN1CCCC(c2ccc(Nc3nc(Nc4cc(F)ccc4C(N)=O)c4cc[nH]c4n3)c(OC)c2)C1 (stereo not drawn) [GSK-1173862A]")
1.51

Value lookup for log10 of AC50; key = CC(C)=Cc1cccc2c1/C(=N/Nc1ccc(S(N)(=O)=O)cc1)C(=O)N2 [GW396574X]
1.31

Reported log10 of AC50 for COc1ccc2ncnc(Nc3ccc(OCc4ccccc4)cc3)c2c1.Cl : what is it?
-3.15

Requested field: log10 of AC50. Item: Fc1ccc(-c2nn3ccccc3c2-c2ccncc2)cc1 [GW434756X]
1.36

Fill in the blank: the reported log10 of AC50 of NS(=O)(=O)c1cccc(-c2ccc3c(NC(=O)C4CC4)n[nH]c3c2)c1 is ____.
1.56

Suppose we examine the molecule Cc1ccc(C(=O)NC2CC2)cc1-c1ccc2[nH]ncc2c1 [GW820759X] ; what log10 of AC50 value has been reported?
1.31

log10 of AC50 lookup needed for C#Cc1cccc(Nc2ncnc3ccc(OCCCCNCCS(C)(=O)=O)cc23)c1 [GW680191X] , thanks.
1.46
